assay: Bioavailability after peroral administration in dogs; type: ADME, organism-based, Canis lupus familiaris; settings: dog, in vivo, po
readoutLabel: bioavailability (%)

{"sampleSmiles": "O=S(=O)(Nc1ccc(CCNC[C@H](O)c2cccnc2)cc1)c1ccc(-c2nc(-c3ccc(F)c(F)c3)cs2)cc1", "measureUnit": "%", "number": 36}

---

biological target: Beta-2 adrenergic receptor (Homo sapiens, UniProt P07550); assay: Binding affinity against human Beta-2 adrenergic receptor expressed in CHO cells using [125I]iodocyanopindolol
Sequence (P07550 whole entry): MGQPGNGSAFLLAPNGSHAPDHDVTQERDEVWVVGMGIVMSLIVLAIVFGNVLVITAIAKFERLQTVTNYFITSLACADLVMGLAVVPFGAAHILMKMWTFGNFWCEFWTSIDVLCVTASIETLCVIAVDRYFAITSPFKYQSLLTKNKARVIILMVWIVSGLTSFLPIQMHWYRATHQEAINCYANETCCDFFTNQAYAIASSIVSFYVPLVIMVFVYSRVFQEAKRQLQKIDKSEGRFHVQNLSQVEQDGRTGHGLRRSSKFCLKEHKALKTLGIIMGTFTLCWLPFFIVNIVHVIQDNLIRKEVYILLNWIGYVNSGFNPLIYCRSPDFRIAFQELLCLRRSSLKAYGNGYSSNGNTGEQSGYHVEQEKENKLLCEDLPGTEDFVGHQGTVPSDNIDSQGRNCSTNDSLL
Output criterion met for records whose IC50 is lower than 2000 nM, criterion not met for records at or above 2000 nM.

{"sampleSmiles": "CCCCCCc1csc(-c2ccc(S(=O)(=O)Nc3ccc(CCNC[C@H](O)c4cccnc4)cc3)cc2)n1", "labelValue": "criterion met"}
{"sampleSmiles": "CCCCCCCCc1csc(-c2ccc(S(=O)(=O)Nc3ccc(CCNC[C@H](O)c4cccnc4)cc3)cc2)n1", "labelValue": "criterion not met"}
{"sampleSmiles": "O=S(=O)(Nc1ccc(CCNC[C@H](O)c2cccnc2)cc1)c1ccc(-c2nc(CCCC3CCCC3)cs2)cc1", "labelValue": "criterion not met"}
{"sampleSmiles": "O=S(=O)(Nc1ccc(CCNC[C@H](O)c2cccnc2)cc1)c1ccc(-c2nc(CCc3ccccc3)cs2)cc1", "labelValue": "criterion met"}
{"sampleSmiles": "O=S(=O)(Nc1ccc(CCNC[C@H](O)c2cccnc2)cc1)c1ccc(-c2nc(-c3ccc4ccccc4c3)cs2)cc1", "labelValue": "criterion not met"}
{"sampleSmiles": "O=S(=O)(Nc1ccc(CCNC[C@H](O)c2cccnc2)cc1)c1ccc(-c2nc(Cc3ccc4ccccc4c3)cs2)cc1", "labelValue": "criterion not met"}

---

biological target: Beta-3 adrenergic receptor (Homo sapiens); assay: Percent increase in adenylyl cyclase activation in CHO cells expressing human beta-3 adrenergic receptor; format: functional, cell-based
Sequence (P13945 whole entry, looked up): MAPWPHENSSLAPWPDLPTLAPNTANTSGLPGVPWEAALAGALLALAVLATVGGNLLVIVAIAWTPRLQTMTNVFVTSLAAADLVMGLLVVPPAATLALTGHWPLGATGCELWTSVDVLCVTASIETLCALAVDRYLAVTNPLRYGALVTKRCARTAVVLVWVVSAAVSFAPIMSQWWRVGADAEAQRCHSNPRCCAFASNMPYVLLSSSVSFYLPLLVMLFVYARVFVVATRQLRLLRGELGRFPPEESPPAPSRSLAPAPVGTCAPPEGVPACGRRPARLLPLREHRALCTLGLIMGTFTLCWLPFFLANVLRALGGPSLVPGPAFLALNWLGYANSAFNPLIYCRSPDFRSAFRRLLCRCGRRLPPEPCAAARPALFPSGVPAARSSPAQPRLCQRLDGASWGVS

{"sampleSmiles": "CC(=O)NCCCCCc1csc(-c2ccc(S(=O)(=O)Nc3ccc(CCNC[C@H](O)c4cccnc4)cc3)cc2)n1", "measureUnit": "%", "Max stimulation": 82}
{"sampleSmiles": "CCCCCCCCc1csc(Cc2ccc(S(=O)(=O)Nc3ccc(CCNC[C@H](O)c4cccnc4)cc3)cc2)n1", "measureUnit": "%", "Max stimulation": 79}
{"sampleSmiles": "O=S(=O)(Nc1ccc(CCNC[C@H](O)c2cccnc2)cc1)c1ccc(-c2nc(-c3ccc(F)cc3)cs2)cc1", "measureUnit": "%", "Max stimulation": 81}
